Experiment: antimalarial activity against Dd2 strain (AID 2302);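 further: 0% = DMSO untreated growth and 100% = chloroquine plus artemisinin killed control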
Conditions: P. falciparum Dd2 in RBCs, LDH growth readout, 72 h; at 2 µM; active compounds read high
Think of 70% as a floor: if growth inhibition stands on it or above, it is Criterion met; beneath it, Criterion not met.

// known answers, use as guide
O=C(Nc1cccc(-c2cccc(-c3nc4ccc(C(F)(F)F)cc4[nH]3)c2)c1)c1csnn1 : Criterion not met
Cc1nc2nc(N)nc(N)c2c(C)c1Cc1ccc(Cl)cc1 : Criterion not met
CC(C)(C)C(=O)Nc1c(-c2cc(=O)oc3cc4c(cc23)CCC4)oc2ccccc12 : Criterion met

Problem: # bool: growth inhibition of `COc1cc(Nc2nc(N)n(C(=O)c3ccc4c(c3)OCO4)n2)cc(OC)c1OC` >= 70%
Solution: Criterion not met

* * *

Test: inhibition of 3D7 malaria parasite growth – strain 3D7 (AID 2306);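 further: 0% = DMSO wells and 100% = chloroquine plus artemisinin control wells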
Details: P. falciparum 3D7 erythrocytic growth, LDH absorbance, 72 h; at 2 µM; active compounds read high
Activity calls are given as the source filed them. No rule for the calls is given here.
property_label: growth inhibition

Guide cases for growth inhibition, answers given:
Cc1cc(N[C@@H](CC(C)C)C(=O)Nc2ccccc2)nc(NCC2CCCCC2)n1 : 101% (active)
c1ccc2c(c1)ncc1c3ccccc3[nH]c21 : 95% (active)
NCc1ccc(CNCc2cccc(-c3cccc(-c4nc5ccccc5[nH]4)c3)c2)cc1 : 101% (active)
COc1cc(CCON2C(N)=NC(N)=NC2(C)C)cc(OC)c1OC : 93% (active)
CCOc1cc2c(cc1OCC)C(c1cc(OC)c(O)cc1Cl)NCC2 (stereo unspecified) : 100% (active)

Fill in growth inhibition for each of the 5 molecules listed.
1. CCN(CCCN1CCCCC1)c1cc(C)nc(Nc2ccc(C)cc2C(F)(F)F)n1
2. Oc1ccc2c(CNCCc3ccccc3)c(O)ccc2c1CNCCc1ccccc1
3. O=C(NCCCCCN1CCC(c2c[nH]c3ccccc23)CC1)Nc1cccc(Br)c1
4. CCc1nc(N)nc(N)c1-c1ccc(F)cc1
5. Cc1c(CNCCCNc2cc(=O)c3ccccc3[nH]2)sc(/C=N/O)c1Br

Solution:
["101% (active)", "99% (active)", "84% (active)", "96% (active)", "82% (active)"]

* * *

Assay: human hepatoma cell viability loss – ATP luminescence, cytotoxicity control for P. falciparum antimalarial project, primary screen (AID 2303);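 further: 0% = DMSO wells and 100% = digitonin-killed cells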
Settings: HepG2 viability, 24-48 h, at 10 µM, active compounds read high
Categories are defined by ranges of inhibition, namely bottom range (below 10%), center range (10% to below 30%), top range (30% or more)

// known answers, use as guide
CC(C)NC(=O)c1cccc(-c2ccc(OCCN3CCCC3c3cc4ccccc4[nH]3)cc2)c1 (stereo not given) : center range
O=C(NC1CCN(Cc2cccc(C(F)(F)F)c2)CC1)c1ccc(-c2cccc(C(F)(F)F)c2)s1 : top range
O=C(Nc1ccc(Cl)cc1)c1ccc(CN2CCCN(Cc3ccccc3)CC2)cc1 : top range
COc1ccc2[nH]cc(C3CCN(CCCCNC(=O)c4ccc(NC(=O)c5ccc(Cl)cc5)cc4)CC3)c2c1 : center range
CN(C)c1cccc(-c2cnc3ccc(NCc4cccc(Cl)c4)nn23)c1 : center range
O=C(Nc1ccc(Cl)cc1)Nc1cccc(-c2cccc(-c3nc4ccc(F)cc4[nH]3)c2)c1 : top range
Fc1cccc(COc2ccc(Nc3ncnc4sc(C#CCNC5CCC5)cc34)cc2Cl)c1 : center range
CCCCCCc1cnc2nc(N)nc(N)c2c1C : top range

Problem: // bin(item) where item = `O=C(Nc1cccc(-c2ccc(-c3nc4ccccc4[nH]3)cc2)c1)c1cnn2cccnc12`
Solution: bottom range

Problem: // bin(item) where item = `COC(=O)c1ccc(CN2CCC(N(Cc3cccc(Oc4ccccc4)c3)S(=O)(=O)c3ccc(NC(C)=O)cc3)CC2)cc1`
Solution: bottom range

* * *

Test: human hepatoma cell viability loss – ATP luminescence, cytotoxicity control for P. falciparum antimalarial project, primary screen (AID 2303);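 further: 0% = DMSO wells and 100% = digitonin-killed cells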
Conditions: HepG2 viability, 24-48 h, at 10 µM
Activity calls are given as the source filed them.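 How the source made its calls: active means inhibition above 50%; inactive means the rest.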
Please reply with one of these outcomes: 1 for active, 0 for inactive

// known answers, use as guide
CN(Cc1cccc(O)c1)C1CCN(c2cc(NC(=O)c3cccc(F)c3)ccn2)CC1 : 0
COc1ccccc1Cn1ccnc1SCC(=O)Nc1cccc(C(F)(F)F)c1 : 0
CCCNCc1ccc(-c2ccc(CN(CC3CCCO3)C(=O)C3CC(=O)c4ccccc43)cc2)nc1 (stereo not given) : 0
Cc1cc(N(C)C2CCN(CC3CCCCC3)C2)nc(Nc2ccc(Br)cc2)n1 (stereo not given) : 0
CC(=Nc1ccc(Cl)c(Cl)c1)N(C)C : 0

Problem: Call for entry `CCc1c(C)nc(-n2nc(C)cc2NC(=O)CC(c2ccccc2)c2ccccc2)[nH]c1=O` :
Solution: 0

Problem: Call for entry `O=C(/C=C/c1ccc(Cl)c(Cl)c1)NCCCCCCN1CCN(C(=O)Nc2ccc(F)c(Cl)c2)CC1` :
Solution: 0

Problem: Call for entry `COc1cccc(Nc2nc(Nc3cccc(C#N)c3)cc(-c3ccncc3)n2)c1` :
Solution: 0

Problem: Call for entry N#Cc1ccc2c(c1)CCN(CCC1CCC(Nc3ncnc4ccccc34)CC1)C2 (stereo not given) :
Solution: 1

Problem: Call for entry `COc1ccc(CNC2CCN(C)CC2)cc1-c1ccc(S(=O)(=O)NC2CCC2)c(F)c1` :
Solution: 1

Problem: Call for entry `CCCc1cn2c3c(cc(C(=O)N[C@@H](Cc4ccccc4)[C@H](O)CNC4CCCCC4)cc13)N(C)S(=O)(=O)CC2` :
Solution: 0

Problem: Call for entry `O=C(Nc1cccc(Cl)c1Cl)NC1CCN(Cc2cccc(O)c2)CC1` :
Solution: 0

* * *

Experiment: human hepatoma cell viability loss – ATP luminescence, cytotoxicity control for P. falciparum antimalarial project, primary screen (AID 2303);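 further: 0% = DMSO wells and 100% = digitonin-killed cells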
Conditions: HepG2 viability, 24-48 h, at 10 µM, active compounds read high
Decide using inhibition alone. Strictly below 40%: Yes. Equal to or above 40%: No.

// known answers, use as guide
COc1ccc(NC(=O)c2ccc(OCCCCCCCOc3ccc(C(=O)Nc4ccc(OC)c(N5CCN(C)CC5)c4)cc3)cc2)cc1N1CCN(C)CC1 : No
Cc1cccc2[nH]c(-c3ccc(-c4cccc(NC(=O)c5cnn6cccnc56)c4)cc3)nc12 : No
COc1ccc2nccc(N(C)CC3(O)CCN(CC(O)c4ccc5c(c4)NC(=O)CS5)CC3)c2n1 (centres undefined) : Yes
CC(C)CCN1CCC(Oc2ccc(NC(=O)c3ccc4ncccc4c3)cc2Cl)C1 (centres undefined) : Yes
O=C(C=Cc1ccc(Cl)c(Cl)c1)NCCCCCN1CCC(CCCNC(=O)[C@@H]2C[C@H]2c2ccccc2)CC1 : No

Problem: Given `CN1CCN(c2ccnc3ccc(NC(=O)Cc4ccc5ccccc5c4)cc23)CC1` , is recorded inhibition strictly lower than 40%?
Solution: Yes

Problem: Given CC(C)(C(=O)Nc1ccc(C2CCC(NCC3CC3)CC2)c(Cl)c1)c1cccc(OC(F)F)c1 (centres undefined) , is recorded inhibition strictly lower than 40%?
Solution: Yes

Problem: Given `COc1cc2nc(N3CCC(CNC(=O)c4ccc(-c5ccc(C(=O)N(C)C)cc5)c(OCCO)c4)CC3)nc(N)c2cc1OC` , is recorded inhibition strictly lower than 40%?
Solution: Yes

Problem: Given `O=C(Nc1ccc(-c2ccc(-c3nc4ccccc4[nH]3)s2)cc1)Nc1ccc(F)c(F)c1F` , is recorded inhibition strictly lower than 40%?
Solution: No

* * *

Assay: antimalarial activity against Dd2 strain (AID 2302);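 further: 0% = DMSO untreated growth and 100% = chloroquine plus artemisinin killed control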
Details: P. falciparum Dd2 in RBCs, LDH growth readout, 72 h; at 2 µM
The source made the active and inactive calls.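 How the source made its calls: active means growth inhibition above 50% at the single 2 µM test dose, taken to imply half-maximal potency below 2 µM; inactive means the rest.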
Please reply with one of these outcomes: Yes (active), No (inactive)

// known answers, use as guide
Nc1ccc(-c2cnc3[nH]cc(-c4ccc(C(=O)O)cc4)c3c2)cn1 : Yes
N#Cc1cncc(-c2nc3c(N4CCC(Cc5ccccc5)CC4)cccc3n2CCNCc2ccccc2)c1 : Yes
CCN1CCC(N(Cc2ccc(-c3ccc(C(F)(F)F)cc3)cc2)C(=O)Cn2c(CCc3cccc(F)c3F)cc(=O)c3c2CCC3)CC1 : Yes
CN(C)CCc1coc2ccc(C(=O)Nc3ccc(-c4ccc(O)cc4)cc3)cc12 : No

Problem: Call for entry `CCOC(=O)CNC(=O)N(CCN(Cc1ccccc1)C(=O)NCC(=O)OCC)Cc1ccccc1` :
Solution: No

Problem: Call for entry O=C(NCC1CCN(Cc2ccc3c(c2)OCCO3)C1)c1cc(-c2ccccc2F)cs1 (centres undefined) :
Solution: No

Problem: Call for entry `N#Cc1ccc2[nH]cc(CN3CCC4(CC3)CN(CCNCc3ccccc3)C(=O)CO4)c2c1` :
Solution: No

Problem: Call for entry `CCN(CC)CCCNc1ncc2c(-c3ccc(NC(=O)Nc4cc(C(F)(F)F)ccc4F)c(F)c3)nn(C)c2n1` :
Solution: Yes

Problem: Call for entry `Clc1ccc(-c2[nH]c3ccccc3c2CN2CCC(N3CCCCC3)CC2)cc1` :
Solution: No
